Target: Neu5Ac(a2-3)Gal(b1-3)GlcNAc(b1-2)Man(a1-3)[Neu5Ac(a2-3)Gal(b1-3)GlcNAc(b1-2)Man(a1-6)]Man(b1-4)GlcNAc(b1-4)GlcNAc
Assay: glycan array binding signal (z-score within array); higher = stronger binding
Settings: glycan notation: IUPAC condensed, linker removed
The entries come from a sample that favours the strongest signals as a whole.
Please go through the items and note down their glycan array binding signal (z-score).
Numbers only.

// solved cases for glycan array binding signal (z-score) follow
CML1 (Coprinopsis cinerea) (protein) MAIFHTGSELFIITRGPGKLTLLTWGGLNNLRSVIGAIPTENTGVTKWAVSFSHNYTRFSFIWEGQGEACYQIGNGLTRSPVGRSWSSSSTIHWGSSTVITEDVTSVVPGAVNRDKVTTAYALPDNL | -0.355
rCnSL-proB (Clitocybe nebularis) (protein) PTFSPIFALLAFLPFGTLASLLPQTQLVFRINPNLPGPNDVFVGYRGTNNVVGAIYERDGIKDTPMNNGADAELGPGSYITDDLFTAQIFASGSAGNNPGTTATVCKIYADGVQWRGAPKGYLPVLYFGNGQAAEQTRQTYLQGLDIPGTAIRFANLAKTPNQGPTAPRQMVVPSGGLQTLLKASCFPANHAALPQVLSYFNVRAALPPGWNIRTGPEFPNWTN | 3.69
Clec2 (Mus musculus), Q9JL99 (protein) MQDEDGYITLNIKPRKQALSSAEPASSWWRVMALVLLISSMGLVVGLVALGIMSVTQQKYLLAEKENLSATLQQLAKKFCQELIRQSEIKTKSTFEHKCSPCATKWRYHGDSCYGFFRRNLTWEESKQYCTEQNATLVKTASQSTLDYIAERITSVRWIGLSRQNSKKDWMWEDSSVLRKNGINLSGNTEENMNCAYLHNGKIHPASCKERHYLICERNAGMTRVDQLL | 3.51

Parameters: items (list). Returns: glycan array binding signal (z-score) for each item.
1. CD34 (Homo sapiens), P28906 (protein) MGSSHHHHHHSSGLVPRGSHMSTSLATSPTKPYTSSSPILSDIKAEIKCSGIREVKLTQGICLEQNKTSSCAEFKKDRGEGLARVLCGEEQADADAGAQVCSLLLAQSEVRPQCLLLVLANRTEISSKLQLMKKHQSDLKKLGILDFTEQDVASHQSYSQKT
2. rCnSL-proA (Clitocybe nebularis) (protein) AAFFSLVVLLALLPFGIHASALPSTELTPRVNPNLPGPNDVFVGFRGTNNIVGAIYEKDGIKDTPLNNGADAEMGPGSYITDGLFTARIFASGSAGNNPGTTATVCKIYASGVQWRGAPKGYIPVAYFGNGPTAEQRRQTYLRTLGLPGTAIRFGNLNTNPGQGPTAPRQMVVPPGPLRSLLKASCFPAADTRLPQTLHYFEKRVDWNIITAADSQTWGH
3. BDCA-2 (Homo sapiens), Q8WTT0 (protein) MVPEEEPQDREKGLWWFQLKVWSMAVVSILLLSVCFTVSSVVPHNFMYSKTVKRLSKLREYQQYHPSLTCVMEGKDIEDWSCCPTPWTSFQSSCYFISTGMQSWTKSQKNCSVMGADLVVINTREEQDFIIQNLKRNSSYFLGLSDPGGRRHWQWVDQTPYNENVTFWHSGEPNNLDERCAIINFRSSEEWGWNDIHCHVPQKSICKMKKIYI

Result ::
1: 2.09; 2: 5.37; 3: -0.169
